- study_system: human LOXL2 (Homo sapiens, UniProt Q9Y4K0)
- Construct: secreted protein in 10-20x concentrated conditioned media
- Sequence (Q9Y4K0 26-774): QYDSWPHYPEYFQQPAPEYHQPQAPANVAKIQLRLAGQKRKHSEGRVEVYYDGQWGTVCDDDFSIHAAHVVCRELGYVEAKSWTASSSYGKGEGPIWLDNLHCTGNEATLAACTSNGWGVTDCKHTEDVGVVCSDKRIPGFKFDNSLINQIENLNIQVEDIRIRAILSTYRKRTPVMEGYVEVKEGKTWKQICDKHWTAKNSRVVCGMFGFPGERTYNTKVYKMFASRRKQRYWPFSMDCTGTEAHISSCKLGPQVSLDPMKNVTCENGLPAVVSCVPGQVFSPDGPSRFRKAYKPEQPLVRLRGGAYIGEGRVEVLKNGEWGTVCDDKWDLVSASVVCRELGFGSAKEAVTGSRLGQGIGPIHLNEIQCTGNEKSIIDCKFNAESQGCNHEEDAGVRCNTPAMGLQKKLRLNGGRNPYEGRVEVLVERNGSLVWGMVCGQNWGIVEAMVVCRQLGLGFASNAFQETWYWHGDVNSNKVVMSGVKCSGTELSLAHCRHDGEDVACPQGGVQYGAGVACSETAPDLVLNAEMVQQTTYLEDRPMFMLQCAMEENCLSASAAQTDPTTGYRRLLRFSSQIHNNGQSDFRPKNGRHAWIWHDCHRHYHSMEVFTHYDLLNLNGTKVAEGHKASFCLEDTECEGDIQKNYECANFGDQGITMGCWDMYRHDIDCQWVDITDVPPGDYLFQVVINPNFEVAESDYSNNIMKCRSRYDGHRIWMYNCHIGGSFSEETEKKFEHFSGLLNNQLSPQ
- protocol_description: Human LOXL2 Amine Oxidase Activity Assay (Amplex Red fluorescence)
- setup_conditions: concentrated conditioned media from CHO cells stably expressing human LOXL2, test compound incubated 2 h at 37° C., pH8, DAP substrate
- Description: Example B-1: Human LOXL2 Amine Oxidase Activity Assay LOXL2 amine oxidase activity is evaluated by measuring Amplex Red fluorescence using 10-20× concentrated conditioned media from CHO cells stably expressing human LOXL2. […] Fluorescence is read in kinetic mode every 2 min for 1 hour at excitation=544 and emission=590. The amine oxidase activity is calculated from the slope of the linear portion of the curve.
Where a name gives a salt, the structure may show the parent alone.
readout_type: IC50

INSERT INTO assay_data (compound, endpoint_result) VALUES
  ('NCc1cc(=O)c2ccc(OCc3ccc(C(F)(F)F)cc3)cc2o1 [Compound 1-62, hydrochloride]', '< 300 nM'),
  ('C#Cc1cccc2c(=O)cc(CN)oc12 [Compound 1-51, hydrochloride]', '> 1000 nM'),
  ('NCc1cc(=O)c2cccc(OCCc3ccccc3)c2o1 [Compound 1-55, hydrochloride]', '300 to 1000 nM'),
  ('NCc1cc(=O)c2cc(C(=O)N3CC[C@@H](N)C3)ccc2o1 [Compound 1-23, dihydrochloride]', '300 to 1000 nM'),
  ('NCc1cc(=O)c2cc(-c3ccccn3)ccc2o1 [Compound 1-7, hydrochloride]', '< 300 nM'),
  ('CN(C)C(=O)c1ccc2oc(CN)cc(=O)c2c1 [Compound 1-18, hydrochloride]', '> 1000 nM'),
  ('NCc1cc(=O)c2cccc(OCC(=O)Nc3ccccc3)c2o1 [Compound 1-57, hydrochloride]', '300 to 1000 nM'),
  ('NCc1cc(=O)c2cc(C(=O)N3C[C@H](O)[C@@H](F)C3)ccc2o1 [Compound 1-60, hydrochloride]', '300 to 1000 nM'),
  ('NCc1cc(=O)c2cc(-c3ccccc3)ccc2o1 [Compound 1-6, hydrochloride]', '< 300 nM'),
  ('NCc1cc(=O)c2cc(C(=O)N3CCC(C(=O)O)C3)ccc2o1 (single isomer, unassigned) [Compound 1-38, hydrochloride]', '> 1000 nM'),
  ('NCc1cc(=O)c2ccc(OCc3ccc4ccccc4n3)cc2o1 [Compound 1-65, hydrochloride]', '< 300 nM'),
  ('COc1ccc2oc(CN)cc(=O)c2c1 [Compound 1-27, hydrochloride]', '< 300 nM'),
  ('NCc1cc(=O)c2cc(C(=O)NCCO)ccc2o1 [Compound 1-59, hydrochloride]', '300 to 1000 nM'),
  ('NCc1cc(=O)c2ccc(OCCOc3ccccc3)cc2o1 [Compound 1-46, hydrochloride]', '< 300 nM'),
  ('CC(C)(O)C#Cc1ccc2oc(CN)cc(=O)c2c1 [Compound 1-4, hydrochloride]', '< 300 nM'),
  ('NCc1cc(=O)c2cc(C(=O)N3CCC(C(=O)O)C3)ccc2o1 (single isomer, unassigned) [Compound 1-37, hydrochloride]', '> 1000 nM');

Reference source: patent US20180215727A1
